Where these numbers come from: paper PMC7942396

System: SARS-CoV-2 (USA_WA1/2020)
Assay: microbe, parasite or virus in culture
Format: cell-based
Conditions: Severe acute respiratory syndrome coronavirus 2, Vero C1008, SARS-CoV-2 CPE assay, Vero E6 cells; confirmed anti-SARS-CoV-2 compounds; read-out: CPE EC50
This listing pairs compounds with measured EC50.
Please respond with the number in µM and leave the unit unwritten.

CCNCCc1ccc(CN(CC)c2cc(OC)ccc2[C@@H]2CCc3cc(O)ccc3C2)cc1 [Elacestrant] = 3.98
Cn1c(NC[C@@H](N)Cc2ccccc2)nc(-c2ccncc2)c(-c2ccc3ccccc3c2)c1=O [AMG-548] = 8.91
Cc1cc(O[C@@H](CCC(F)(F)F)c2ccc(C(=O)NCCC(=O)O)cc2)cc(C)c1-c1ccc(C(C)(C)C)cc1 [Adomeglivant] = 3.16
CCN(CC)CCN(Cc1ccc(-c2ccc(C(F)(F)F)cc2)cc1)C(=O)Cn1c(SCc2ccc(F)cc2)nc(=O)c2c1CCC2 [Darapladib] = 2.82
Cc1ccc(-c2cc(C(F)(F)F)nn2-c2ccc(S(N)(=O)=O)cc2)cc1 [Celecoxib] = 11.2

Now consider a different compound.
Q) For SARS-CoV-2 (USA_WA1/2020), provide EC50 of CC#C[C@@H](CC(=O)O)c1ccc(OCc2cccc(-c3ccc(C(F)(F)F)cc3)c2)cc1 [AMG-837] please.
A) 11.2
